melting point: recorded values

> print(dat)
                                   compound  reported.endpoint  experimental.result
1  CC1(C)Oc2c(c(=O)n(Cc3ccccc3)c3ccccc23)[C@@H](NC(=O)CCCCl)[C@@H]1O (relative stereo)      melting point        176 to 178 °C
2  O=C1CC(c2cccs2)=Nc2ccc(-c3ccc(=O)[nH]c3)cc2N1      melting point             > 250 °C
3  O=C(O)c1cccc(OCc2ccc(Cl)cc2Cl)c1OCc1ccccc1      melting point        151 to 153 °C
4  COc1cccc(C(=O)CCCN2CCC(O)(c3ccc(Cl)cc3)CC2)c1      melting point        127 to 129 °C

Now for the compound whose melting point we want.
The reported melting point of the compound Cc1nnc2nc(-c3ccccc3)c3cc([N+](=O)[O-])ccc3n12 was 350 to 352 °C
